Each entry below carries its reported self-cleavage.
B1: LINE1-full (parent)
chain: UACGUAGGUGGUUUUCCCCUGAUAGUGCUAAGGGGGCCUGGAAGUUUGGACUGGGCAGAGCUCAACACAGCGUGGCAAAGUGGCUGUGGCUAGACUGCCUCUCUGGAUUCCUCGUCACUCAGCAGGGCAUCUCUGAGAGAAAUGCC

# Variants of: B1
# assay overview: self-cleavage, relative activity (ratio to wild type); higher = more cleavage; in vitro, sequencing; the parent is a self-cleaving ribozyme
value kind: self-cleavage

In [3]: df
Out[3]:
    mutation_string     value_kind  experimental_result
 0        U5C A129U  self-cleavage                 1.05
 1      U108A A136G  self-cleavage                 0.53
 2        U20C C84G  self-cleavage                 0.09
 3        A78G G86U  self-cleavage                 0.08
 4       U91C U130C  self-cleavage                 0.77
 5        A24G A64U  self-cleavage                 0.47
 6       U47C A121U  self-cleavage                 1.52
 7        G7A U100C  self-cleavage                 2.45
 8       U20C U119C  self-cleavage                 1.35
 9         A6G A24G  self-cleavage                 1.21
10         U1C U23A  self-cleavage                 0.56
11       A30U U112C  self-cleavage                 1.08
12       U14C U100C  self-cleavage                 1.55
13       A65U A124U  self-cleavage                 0.18
14       U52A A124U  self-cleavage                 1.15
15       U29C A121C  self-cleavage                 1.93
16        G8A A121C  self-cleavage                 0.46
17        A57U A67U  self-cleavage                 0.02
18       U26G A117U  self-cleavage                  1.3
19        G35A A69U  self-cleavage                 0.02
20             U62G  self-cleavage                 0.05
21       U39C U134C  self-cleavage                  1.5
